target: EBOV NP (Zaire ebolavirus, UniProt P18272); format: binding, Ebola virus
Sequence (P18272 36-351 limits assumed): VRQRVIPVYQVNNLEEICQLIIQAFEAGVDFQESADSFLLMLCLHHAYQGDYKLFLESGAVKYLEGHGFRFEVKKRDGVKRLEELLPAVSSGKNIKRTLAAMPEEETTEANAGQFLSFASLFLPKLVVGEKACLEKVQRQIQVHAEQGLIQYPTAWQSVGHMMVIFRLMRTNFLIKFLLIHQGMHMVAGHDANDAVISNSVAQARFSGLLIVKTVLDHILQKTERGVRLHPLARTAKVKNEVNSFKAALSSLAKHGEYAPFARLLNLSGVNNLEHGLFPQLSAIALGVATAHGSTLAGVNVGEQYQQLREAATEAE
Catalogue of molecules with associated △Tm

- chemical_structure: "O=C1C[C@@H](c2ccc(O)cc2)Oc2cc(O[C@@H]3O[C@H](CO)[C@@H](O)[C@H](O)[C@H]3O)ccc21"
  △Tm: "0.0 ± 0.0 °C"
- chemical_structure: "CC1(C)[C@@H](O)CC[C@]2(C)[C@H]3C(=O)C=C4[C@H]5C[C@@](C)(C(=O)O)CC[C@]5(C)CC[C@@]4(C)[C@]3(C)CC[C@@H]12"
  △Tm: "−0.8 ± 0.4 °C"
- chemical_structure: "O=C(/C=C/c1ccc(O)cc1)c1ccc(O[C@@H]2O[C@H](CO)[C@@H](O)[C@H](O)[C@H]2O)cc1O"
  △Tm: "0.1 ± 0.2 °C"
